Data provenance is patent US10023590B2.

# Tested on: Amaranthus retroflexus
# procedureDetails: Greenhouse post-emergence herbicidal activity, AMARE
# Assay type: in vivo
# recordedConditions: AMARE, 0.125 kg/ha, scale 0 to 100
measureName: pest or weed control at 125 g/ha (%)
Give bare numbers, in %.

Recorded results for 2 compounds are shown here.
[
  {
    "structureString": "CCN(c1c(Cl)ccc(C2=C(O)c3ncccc3C(C)(C)S2(=O)=O)c1Cl)S(C)(=O)=O",
    "measureName": "pest or weed control at 125 g/ha",
    "quantitativeReadout": 98
  },
  {
    "structureString": "CN(c1c(Cl)ccc(C2=C(O)c3ncccc3C(C)(C)S2(=O)=O)c1Cl)S(=O)(=O)CC1CC1",
    "measureName": "pest or weed control at 125 g/ha",
    "quantitativeReadout": 100
  }
]

# batch: return pest or weed control at 125 g/ha for each of the 8 compounds below
1. Cc1c(C2=C(O)c3ncccc3CS2(=O)=O)ccc(Cl)c1N(C)S(C)(=O)=O
2. CN(c1c(Cl)ccc(C2=C(O)c3ncccc3C(C)(C)S2(=O)=O)c1Cl)S(=O)(=O)C1CC1
3. CN(c1ccc(Cl)c(C2=C(O)c3ncccc3C(C)(C)S2(=O)=O)c1Cl)S(C)(=O)=O
4. CS(=O)(=O)Nc1ccc(Cl)c(C2=C(O)c3ncccc3CS2(=O)=O)c1Cl
5. CCS(=O)(=O)N(C)c1c(Cl)ccc(C2=C(O)c3ncccc3CS2(=O)=O)c1Cl
6. CN(c1cccc(C2=C(O)c3ncccc3CS2(=O)=O)c1Cl)S(C)(=O)=O
7. CCS(=O)(=O)N(C)c1c(Cl)ccc(C2=C(O)c3ncccc3C(C)(C)S2(=O)=O)c1Cl
8. CN(C)S(=O)(=O)Oc1c(Cl)ccc(C2=C(O)c3ncccc3CS2(=O)=O)c1Cl

[reply]
1: 90; 2: 98; 3: 90; 4: 95; 5: 100; 6: 90; 7: 100; 8: 75

Batch request: pest or weed control at 125 g/ha for each of the following compounds.
1. CN(c1cccc(C2=C(OC(=O)C(C)(C)C)c3ncccc3C(C)(C)S2(=O)=O)c1Cl)S(C)(=O)=O
2. CN(c1c(Cl)ccc(C2=C(O)c3ncccc3CS2(=O)=O)c1Cl)S(=O)(=O)CC1CC1

[reply]
[90, 100]
